FYI, the data here is from patent US6680323B2.

Data export: Ki values recorded with human α1a receptor (Homo sapiens).
Sequence (P35348 whole entry): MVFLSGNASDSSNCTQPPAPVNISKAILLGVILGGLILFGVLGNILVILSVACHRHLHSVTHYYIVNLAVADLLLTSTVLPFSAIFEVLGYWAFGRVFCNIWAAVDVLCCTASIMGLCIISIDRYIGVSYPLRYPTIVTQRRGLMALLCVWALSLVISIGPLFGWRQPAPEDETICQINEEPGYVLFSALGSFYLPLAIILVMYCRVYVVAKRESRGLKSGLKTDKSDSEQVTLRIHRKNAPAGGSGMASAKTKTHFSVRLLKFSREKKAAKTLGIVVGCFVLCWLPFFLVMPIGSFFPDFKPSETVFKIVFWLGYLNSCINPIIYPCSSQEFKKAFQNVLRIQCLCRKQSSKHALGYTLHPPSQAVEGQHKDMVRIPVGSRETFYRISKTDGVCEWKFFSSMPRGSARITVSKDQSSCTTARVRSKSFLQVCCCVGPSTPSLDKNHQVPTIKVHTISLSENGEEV
Structures can show the parent of a compound that is named as a salt.

compound	Ki
COCC1=C(C(=O)OC)[C@H](c2ccc(F)c(F)c2)N(C(=O)NCCC[n+]2ccc(-c3ccccn3)cc2)C(=O)N1 [Compound 3]	212 nM
O=C(O)CCNC(=O)N1C(=O)NC2=C(C(=O)OC2)[C@@H]1c1ccc(F)c(F)c1 [Compound 9]	> 500 nM

Switching to the query record.
Please indicate Ki recorded for COCC1=C(C(=O)OC)[C@H](c2ccc(F)c(F)c2)N(C(=O)NCCCN2CCC(c3cccc[n+]3[O-])CC2)C(=O)N1 [Compound 2, hydrochloride] 0.3 nM

----------
Target: human α2c receptor (Homo sapiens, UniProt P18825)
Sequence (P18825 1-462): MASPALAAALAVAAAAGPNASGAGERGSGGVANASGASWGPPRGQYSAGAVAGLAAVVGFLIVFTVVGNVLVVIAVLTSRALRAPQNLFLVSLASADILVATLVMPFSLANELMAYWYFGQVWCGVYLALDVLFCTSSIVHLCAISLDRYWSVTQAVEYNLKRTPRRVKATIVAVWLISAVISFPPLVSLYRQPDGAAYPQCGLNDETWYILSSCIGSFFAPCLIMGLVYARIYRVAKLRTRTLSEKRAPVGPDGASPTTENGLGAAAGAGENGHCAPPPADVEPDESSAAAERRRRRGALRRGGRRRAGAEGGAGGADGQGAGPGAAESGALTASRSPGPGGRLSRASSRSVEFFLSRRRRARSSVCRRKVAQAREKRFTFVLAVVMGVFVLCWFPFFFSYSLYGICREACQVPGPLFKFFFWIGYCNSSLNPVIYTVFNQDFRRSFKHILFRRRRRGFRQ
Structures can show the parent of a compound that is named as a salt.
measurementLabel: pKi
Please report pKi as the negative decimal logarithm of the molar concentration, giving only the number.

compound	pKi
COCC1=C(C(=O)OC)[C@H](c2ccc(F)c(F)c2)N(C(=O)NCCCN2CCC(c3cccc[n+]3[O-])CC2)C(=O)N1 [Compound 2, hydrochloride]	5.82

Switching to the query record.
Please indicate pKi recorded for COCC1=C(CC(=O)O)C(c2ccc(F)c(F)c2)N(C(=O)NCCC[N+]2([O-])CCC(c3ccccn3)CC2)C(=O)N1 (single isomer, unassigned; (+)) [Compound 4] 5.10

----------
target: human α1d receptor (Homo sapiens, UniProt P25100); construct: expressed in transfected cells; assay: Radioligand binding ([3H]prazosin) at cloned human α1d receptor; conditions: second column headed hα1a (c3); membranes of transfected LM(tk−) cells, [3H]prazosin 0.5 nM; read-out: Binding affinity hα1a
Sequence (P25100 whole entry): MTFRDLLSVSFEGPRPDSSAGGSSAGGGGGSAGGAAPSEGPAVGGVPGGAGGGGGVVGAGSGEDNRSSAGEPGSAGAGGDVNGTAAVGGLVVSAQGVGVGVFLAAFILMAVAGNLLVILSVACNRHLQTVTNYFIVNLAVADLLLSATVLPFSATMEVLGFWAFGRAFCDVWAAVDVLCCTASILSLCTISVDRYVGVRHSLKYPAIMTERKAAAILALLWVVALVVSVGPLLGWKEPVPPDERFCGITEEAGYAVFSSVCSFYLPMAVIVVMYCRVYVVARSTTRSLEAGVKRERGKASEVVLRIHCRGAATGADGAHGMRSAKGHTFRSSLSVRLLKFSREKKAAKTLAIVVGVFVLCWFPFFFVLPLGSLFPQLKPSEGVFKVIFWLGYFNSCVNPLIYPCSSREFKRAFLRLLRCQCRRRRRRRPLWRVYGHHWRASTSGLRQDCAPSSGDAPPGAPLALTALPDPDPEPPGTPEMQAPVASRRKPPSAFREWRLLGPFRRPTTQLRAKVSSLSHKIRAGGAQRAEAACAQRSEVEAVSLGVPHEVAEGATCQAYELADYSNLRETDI
Where a name gives a salt, the structure may show the parent alone.
Catalogue of Ki values
Your answer should be a plain number; it is taken to be in µM.

compound	reportedMeasurement
COCC1=C(C(=O)OC)[C@H](c2ccc(F)c(F)c2)N(C(=O)NCCCN2CCC(c3cccc[n+]3[O-])CC2)C(=O)N1 [Compound 2, hydrochloride]	3.7

Switching to the query record.
Please indicate Ki recorded for O=C1OCC2=C1C(c1ccc(F)c(F)c1)N(C(=O)NCCCN1CCC(c3ccccn3)CC1)C(=O)N2 (single isomer, unassigned; (+)) 1.97

----------
Catalogue of pKi values
Target: human α1b receptor (Homo sapiens, UniProt P35368)
Sequence (P35368 1-520): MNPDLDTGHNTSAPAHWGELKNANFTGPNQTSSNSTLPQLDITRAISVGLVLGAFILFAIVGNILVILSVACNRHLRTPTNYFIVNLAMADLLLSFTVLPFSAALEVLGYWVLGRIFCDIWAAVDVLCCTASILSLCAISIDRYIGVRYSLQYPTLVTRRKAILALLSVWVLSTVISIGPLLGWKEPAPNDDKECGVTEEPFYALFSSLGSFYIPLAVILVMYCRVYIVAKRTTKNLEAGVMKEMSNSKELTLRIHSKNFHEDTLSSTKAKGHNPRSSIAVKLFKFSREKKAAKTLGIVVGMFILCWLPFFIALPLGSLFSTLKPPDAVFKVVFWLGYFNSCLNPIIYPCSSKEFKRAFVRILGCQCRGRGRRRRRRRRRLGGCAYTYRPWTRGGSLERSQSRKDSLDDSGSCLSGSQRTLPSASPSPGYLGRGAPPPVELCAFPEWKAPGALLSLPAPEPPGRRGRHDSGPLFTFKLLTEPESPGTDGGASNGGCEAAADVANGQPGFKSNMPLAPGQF
Counter-ions that a name gives are not always drawn.
Please report pKi as the negative decimal logarithm of the molar concentration, giving only the number.

Look over these answered cases.
compound	reportedMeasurement
COC(=O)C1=C(CO)NC(=O)N(C(=O)NCCCN2CCC(c3ccccn3)CC2)[C@H]1c1ccc(F)c(F)c1 [Compound 7]	6.28
COCC1=C(CC(=O)O)C(c2ccc(F)c(F)c2)N(C(=O)NCCC[N+]2([O-])CCC(c3ccccn3)CC2)C(=O)N1 (single isomer, unassigned; (+)) [Compound 4]	5.87

Please indicate pKi recorded for O=C1OCC2=C1C(c1ccc(F)c(F)c1)N(C(=O)NCCCN1CCC(c3ccccn3)CC1)C(=O)N2 (single isomer, unassigned; (+)) [Compound 8] 5.80

Please indicate pKi recorded for COCC1=C(C(=O)OC)[C@H](c2ccc(F)c(F)c2)N(C(=O)NCCCN2CCC(c3cccc[n+]3[O-])CC2)C(=O)N1 [Compound 2, hydrochloride] 5.82
